Provide the recorded Activity for the entries that follow.
system: J774.A1; experiment: Cytotoxicity against mouse J774.A1 cells assessed as cell viability at 10 uM incubated for 4 hrs by MTT assay relative to control; format: toxicity, cell-based; details: j774.a1, 4 h, 10 µM
Use % as the unit, but write only the number.

Problem: Activity lookup needed for `C#CCS(=O)(=O)c1ccc(CCN(Cc2cc(Cl)ccc2OCCC)C(=O)c2csc3ccccc23)cc1` , thanks.
Solution: 85.7

Problem: What about this compound? `C#CCS(=O)(=O)c1ccc(CCN(Cc2cc(Cl)ccc2OCCC)C(=O)Cc2ccsc2)cc1`
Solution: 81.1

Problem: What about this compound? `C#CCNS(=O)(=O)c1ccc(CCN(Cc2cc(Cl)ccc2OCCC)C(=O)Cc2csc3ccccc23)cc1`
Solution: 105.4

Problem: What about this compound? `C#CCNS(=O)(=O)c1ccc(CCN(Cc2cc(Cl)ccc2OCCC)C(=O)CCCc2ccsc2)cc1`
Solution: 97.9

Problem: What about this compound? `C#CCNS(=O)(=O)c1ccc(CCN(Cc2cc(Cl)ccc2OCCC)C(=O)c2ccc(O)cc2)cc1`
Solution: 83.5

Problem: What about this compound? `C#CCNS(=O)(=O)c1ccc(CCN(Cc2ccccc2OCCC)C(=O)Cc2ccsc2)cc1`
Solution: 100.2

Problem: What about this compound? `C#CCNS(=O)(=O)c1ccc(CCN(Cc2cc(Cl)ccc2OCCC)C(=O)Cc2ccc(F)cc2)cc1`
Solution: 102.2

Problem: What about this compound? `C#CCNS(=O)(=O)c1ccc(CCN(Cc2ccco2)C(=O)Cc2ccsc2)cc1`
Solution: 112.9

Problem: What about this compound? `C#CCNS(=O)(=O)c1ccc(CCN(Cc2cccc3c2OCO3)C(=O)c2ccc(F)cc2)cc1`
Solution: 99.5

Problem: What about this compound? `CCCOc1ccc(Cl)cc1CN(CCc1ccc(S(=O)(=O)NCC(C)(C)C)cc1)C(=O)Cc1ccsc1`
Solution: 105.1
